B1: ZNF263 (parent)
chain: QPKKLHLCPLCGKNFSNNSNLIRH

variants of: B1; experiment: protein stability index of a GFP-peptide fusion (GPS, HEK-293T) (PSI 1-6); higher = more stable; conditions: c terminus: a fixed tail appended;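 note: lentivirally expressed fusions sorted by FACS into six bins by GFP to DsRed ratio, PSI derived from sequencing read proportions per bin multiplied by bin number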
Parameter: protein stability index. Scope: all listed entries.
Please respond with just the number, no unit label.

Field: example entries. Status: answers known.
H24T	2.35
P9E	2.56
H6M	2.24
S19G	1.96
L5Y	2.18

C11P has a reported protein stability index of 3.36

Sure, the documented protein stability index for S19P is 1.77

Please fill in: protein stability index reported for L21T = 2.56

So for H24D , the logged protein stability index turned out to be 2.11

The variant listed as N17G has a reported protein stability index of 2.09

Per the record, R23K has protein stability index of 3.19

Sure, the documented protein stability index for S16G is 3.42

Looking up N17M , I found its protein stability index recorded as 2.26
